Just for reference, ChEMBL document CHEMBL1136791 is where these values come from.

experiment-notes: Area under curve of compound was determined after oral administration (5 mg/kg) in rat
Assay type: ADME, organism-based
conditions-used: in vivo
assay-endpoint: AUC
Quick note: unit goes after the number.

I would be grateful if you could share the reported AUC for O=C(O)C(=O)N(c1ccccc1C(=O)O)c1cccc2ccccc12 . 30600 ng·h/mL
